Target: WIL-FL (Homo sapiens, UniProt P01721)
Assay: Unlabeled LC Protease Sensitivity Assay (proteinase K)
Format: biochemical
Settings: small molecule 10 μM, WIL-FL 5 μM, proteinase K 50 nM, 2 hours at 37° C.
recorded-metric: Protection (fold protection of LC from protease)

Some solved cases for reference:
molecule	assayed-system	reported-result
CCN(CC)c1ccc2c(C)c(CCNC(=O)NCc3cccnc3)c(=O)oc2c1	WIL-FL (Homo sapiens, UniProt P01721)	C (C ≥ 0.6)
CCN(CC)c1ccc2c(C)c(CCNC(=O)NCc3cccc(-c4c[nH]cn4)c3)c(=O)oc2c1	WIL-FL (Homo sapiens, UniProt P01721)	C (C ≥ 0.6)
CCN(CC)c1ccc2c(C)c(CCN3C(=O)NC4(CCN(c5ncnc6[nH]ncc56)CC4)C3=O)c(=O)oc2c1	WIL-FL (Homo sapiens, UniProt P01721)	C (C ≥ 0.6)
CCN(CC)c1ccc2c(C)c(CCN3C(=O)NC4(CCN(c5ncc(C(F)(F)F)cn5)C4)C3=O)c(=O)oc2c1 (centres unmarked)	WIL-FL (Homo sapiens, UniProt P01721)	A (A < 0.3))
CCN(Cc1ccccc1)c1ccc2c(C)cc(=O)oc2c1	WIL-FL (Homo sapiens, UniProt P01721)	A (A < 0.3))
CCN(CC)c1ccc2c(C)c(CCOC(=O)NCc3nccc4ccccc34)c(=O)oc2c1	WIL-FL (Homo sapiens, UniProt P01721)	A (A < 0.3))

Next item in the queue.
get_value(item= Cc1cc(=O)oc2cc(OC(C)c3ccncc3)ccc12 (centres unmarked) , readout=Protection (fold protection of LC from protease)) returns A (A < 0.3))

----------
Target: WIL-FL* (Homo sapiens, UniProt P01721, K101C, form not given)
Assay: PCFP assay with thermolysin
Settings: mean ± sd, n=3; 6.75 μM compound
Let's look at some compounds and their measured Thermolysin activity (%).
Value expressed in %; do not type the unit.

compound	Thermolysin activity (%)
CC(C)CC1NC(=O)N(CC(=O)Nc2ccc(C(F)(F)F)cc2)C1=O (racemic) [Compound 8]	50.8
CCN(CC)c1ccc2c(C)c(Cl)c(=O)oc2c1 [Compound 10]	55.5
CCN(CC)c1ccc2c(C)c(CN3CCOCC3)c(=O)oc2c1 [Compound 12]	30.2
CC(C=NNc1ccc(S(N)(=O)=O)cc1[N+](=O)[O-])c1ccccc1 (centres unmarked) [Compound 6]	45.1

Moving on to another compound below.
The recorded Thermolysin activity (%) for CC(Oc1ccc2ccc(=O)oc2c1)c1ccccc1 (centres unmarked) [Compound 15] is 18.3
